Target: K-Ras (G12C) (Homo sapiens (Human), UniProt P01116, G12C)
Sequence (P01116-2 other isoform, or with tags, fused parts or gaps G12C): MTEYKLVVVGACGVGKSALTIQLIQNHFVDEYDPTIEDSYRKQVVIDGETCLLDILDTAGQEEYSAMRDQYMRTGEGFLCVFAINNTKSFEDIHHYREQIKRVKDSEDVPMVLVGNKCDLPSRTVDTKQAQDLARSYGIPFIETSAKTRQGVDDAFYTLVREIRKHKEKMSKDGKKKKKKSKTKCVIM
Test: MicroScale Thermophoresis (MST), GTP affinity for binding domain
Excerpt: For the first time, the affinity of GTP for the GTP binding domain of K-Ras utilizing a Scintillation Proximity Assay (SPA) and MicroScale Thermophoresis (MST) has been measured and disclosed herein. These methods were not available when Wittinghofer and colleagues undertook their studies. This therefore led to the novel, unanticipated conclusion that compounds such as small molecules could be discovered that would bind to a Ras GTP binding domain and compete with the binding of GTP to Ras. […]
pKd: −log10 of the molar value.
property: pKd

Nc1nc2c(ncn2[C@@H]2O[C@H](COP(=O)(O)OP(=O)(O)OP(=O)(O)O)[C@@H](O)[C@H]2O)c(=O)[nH]1: 6.68

----------
Listed below: inhibition at 30 µM values for each entry.
system: IL6 production in RAW 264.7 macrophage cell line; assay: Mouse IL6 quantification assay (LPS-stimulated macrophages, ELISA); assay type: cell-based; conditions: RAW264.7, RAW 264.7 murine leukemia virus transformed macrophage cell lines, LPS stimulation, read-out: IL-6 % Inhibition at 30 μM
property: inhibition at 30 µM

CN(Cc1cnn(C)c1)c1nc(-c2ccccn2)nc2scc(-c3ccccc3)c12 [drawing 2141]: 76 to 100%
Cc1c(C(=O)Nc2nnc(-c3ccccn3)[nH]2)oc2ccccc12 [drawing 1936]: 0%
O=C(Cn1cnc2ccccc2c1=O)Nc1nc(-c2ccccn2)cs1 [drawing 2015]: 51 to 75%
O=C(CC1CCCC1)NCC(=O)Nc1nnc(-c2ccccn2)[nH]1 [drawing 1962]: 1 to 25%
COCCNc1nc(-c2nccn2C)nc2sc(-c3ccccc3)c(-c3ccncc3)c12 [drawing 2423]: 51 to 75%
COc1ccccc1C1CN(C(=O)c2csc3c(O)nc(-c4ccccn4)nc23)CCN1 (stereo not drawn) [drawing 2196]: 26 to 50%
O=C(c1csc2c(O)nc(-c3ccccn3)nc12)N1CCOC(c2nccs2)C1 (stereo not drawn) [drawing 2171]: 51 to 75%
CC(C)COc1ccc(-c2csc3c(O)nc(-c4ccccn4)nc23)cn1 [drawing 2269]: 76 to 100%
O=C(Nc1nc(-c2ccccn2)cs1)c1ccc(F)cc1 [drawing 2020]: 26 to 50%
COC(=O)c1cncc(C(=O)Nc2nnc(-c3ccccn3)[nH]2)c1 [drawing 1981]: 1 to 25%
Nc1nc(O)c2sc(-c3cccc(C(=O)N4CCC(O)C4)c3)cc2n1 (stereo not drawn) [drawing 2370]: 0%
O=C(CN1CCN(c2nc(-c3ccccn3)nc3scc(-c4ccccc4)c23)CC1)N1CCCC1 [drawing 2157]: 1 to 25%
COCCNc1nc(-c2ccncn2)nc2sc(-c3ccccc3)c(-c3ccccc3)c12 [drawing 2401]: 76 to 100%
O=c1[nH]c(-c2ccccn2)nc2c([C@@H]3O[C@H](CO)[C@@H](O)[C@H]3O)csc12 [drawing 2354]: 1 to 25%
N#Cc1ccc(COCC(=O)Nc2ccnc(-c3ccccn3)n2)cc1 [drawing 2208]: 1 to 25%
Oc1nc(-c2ccccn2)nc2c(-c3ccccc3)csc12 [drawing 2120]: 76 to 100%
Cc1ccc(-c2csc3c(O)nc(-c4ccccn4)nc23)cc1 [drawing 2387]: 0%
COCCNc1nc(-c2nccn2C)nc2sc(-c3ccc(OC)cc3)c(-c3ccccc3)c12 [drawing 2424]: 76 to 100%
O=C(Cn1c(=O)[nH]c2ccccc21)Nc1nnc(-c2ccccn2)[nH]1 [drawing 1987]: 1 to 25%
O=C(c1csc2c(O)nc(-c3ccccn3)nc12)N1CCC(c2ccncc2)C1 (stereo not drawn) [drawing 2232]: 76 to 100%
O=C(CNc1nc(-c2ccccn2)nc2scc(-c3ccccc3)c12)NC1CC1 [drawing 2149]: 26 to 50%
Oc1nc(-c2ccccn2)nc2c1CCCN2 [drawing 2070]: 26 to 50%
CC1(O)CCN(C(=O)c2csc3c(O)nc(-c4ccccn4)nc23)CC1 [drawing 2110]: 51 to 75%
Oc1nc(-c2ccccn2)nc2c(-c3ccc(C4CCC4)cc3)csc12 [drawing 2257]: 51 to 75%
Cc1cnc(-c2ccccn2)nc1NC(=O)C(C)c1ccc(C#N)cc1 (stereo not drawn) [drawing 2209]: 1 to 25%
COc1ccc(CCC(=O)Nc2nc(-c3ccccn3)nc3sccc23)cn1 [drawing 2330]: 76 to 100%
Nc1nc(O)c2sc(-c3cccc(C(=O)NC4CCNC4=O)c3)cc2n1 (stereo not drawn) [drawing 2369]: 1 to 25%
COCCNc1nc(-c2cn(C)cn2)nc2sc(-c3ccncc3)c(-c3ccccc3)c12 [drawing 2357]: 51 to 75%
COC(=O)C(C)CN(Cc1cc(Br)ccc1[N+](=O)[O-])C1CC1 (stereo not drawn) [drawing 2063]: 26 to 50%
COCCNc1nc(-c2nccn2C)nc2sc(C)c(-c3ccccc3)c12 [drawing 2411]: 1 to 25%
O=C(c1cocn1)N1CCCc2c(O)nc(-c3ccccn3)nc21 [drawing 2081]: 1 to 25%
Cc1cccc(C(=O)Nc2nnc(-c3ccccn3)[nH]2)n1 [drawing 1976]: 1 to 25%
COCCNc1nc(-c2nccn2C)nc2sc(-c3cccc(OC)c3)c(-c3ccccc3)c12 [drawing 2413]: 76 to 100%
COCC(C)Nc1nc(-c2ccccn2)nc2sc(C)c(-c3ccccc3)c12 (stereo not drawn) [drawing 2039]: 76 to 100%
O=C(Nc1nnc(-c2ccccn2)[nH]1)C1CC1c1ccc(F)cc1 (stereo not drawn) [drawing 1974]: 1 to 25%
O=C(COCCOc1ccccc1)Nc1nnc(-c2ccccn2)[nH]1 [drawing 2005]: 0%
